Values were extracted from paper PMC7440162.

Target: T1, human ISLR2 ECD-Fc (human, UniProt Q6UXK2 19-589, biotin on the AviTag (as SPR ligand))
T1 sequence: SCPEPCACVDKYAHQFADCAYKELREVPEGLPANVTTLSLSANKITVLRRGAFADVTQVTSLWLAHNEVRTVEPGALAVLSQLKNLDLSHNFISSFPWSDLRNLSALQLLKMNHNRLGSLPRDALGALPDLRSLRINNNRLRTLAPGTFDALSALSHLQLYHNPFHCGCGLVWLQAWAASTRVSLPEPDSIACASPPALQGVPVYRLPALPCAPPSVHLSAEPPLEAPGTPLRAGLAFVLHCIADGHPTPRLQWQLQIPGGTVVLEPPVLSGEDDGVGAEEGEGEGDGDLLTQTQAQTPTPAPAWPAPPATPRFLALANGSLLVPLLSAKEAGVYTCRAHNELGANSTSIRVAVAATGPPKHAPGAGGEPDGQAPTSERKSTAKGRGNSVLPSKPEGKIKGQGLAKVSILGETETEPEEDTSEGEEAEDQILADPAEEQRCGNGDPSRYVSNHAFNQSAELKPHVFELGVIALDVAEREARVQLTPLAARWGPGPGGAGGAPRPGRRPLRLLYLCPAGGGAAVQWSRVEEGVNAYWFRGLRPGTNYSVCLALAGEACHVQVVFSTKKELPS
Assay: SPR
value.kind: binding result

1. IL-6Rα ECD-Fc (Fc fusion, biotin on the AviTag (as SPR ligand)) LAPRRCPAQEVARGVLTSLPGDSVTLTCPGVEPEDNATVHWVLRKPAAGSHPSRWAGMGRRLLLRSVQLHDSGNYSCYRAGRPAGTVHLLVDVPPEEPQLSCFRKSPLSNVVCEWGPRSTPSLTTKAVLLVRKFQNSPAEDFQEPCQYSQESQKFSCQLAVPEGDSSFYIVSMCVASSVGSKFSKTQTFQGCGILQPDPPANITVTAVARNPRWLSVTWQDPHSWNSSFYRLRFELRYRAERSKTFTTWMVKDLQHHCVIHDAWSGLRHVVQLRAQEEFGQGEWSEWSPEAMGTPWTESRSPPAENEVSTPMQALTTNKDDDNILFRDSANATSLPVQDSSSVPLP	binds
2. IGFBP7-Fc (Fc fusion, biotin on the AviTag (as SPR ligand)) SSSDTCGPCEPASCPPLPPLGCLLGETRDACGCCPMCARGEGEPCGGGGAGRGYCAPGMECVKSRKRRKGKAGAAAGGPGVSGVCVCKSRYPVCGSDGTTYPSGCQLRAASQRAESRGEKAITQVSKGTCEQGPSIVTPPKDIWNVTGAQVYLSCEVIGIPTPVLIWNKVKRGHYGVQRTELLPGDRDNLAIQTRGGPEKHEVTGWVLVSPLSKEDAGEYECHASNSQGQASASAKITVVDALHEIPVKKGEGAEL	binds
3. IGFBPL1-Fc (Fc fusion, biotin on the AviTag (as SPR ligand)) LGIRDVGGRRPKCGPCRPEGCPAPAPCPAPGISALDECGCCARCLGAEGASCGGRAGGRCGPGLVCASQAAGAAPEGTGLCVCAQRGTVCGSDGRSYPSVCALRLRARHTPRAHPGHLHKARDGPCEFAPVVVVPPRSVHNVTGAQVGLSCEVRAVPTPVITWRKVTKSPEGTQALEELPGDHVNIAVQVRGGPSDHEATAWILINPLRKEDEGVYQCHAANMVGEAESHSTVTVLDLSKYRSFHFPAPDDRM	binds
